# Target: MNK2 (Homo sapiens)
# Assay Notes: MNK2 kinase inhibition assay (LANCE Ultra kinase activity assay, PerkinElmer)
# Assay type: biochemical
# Condition Description: inhibition rate at 1000 nM compound; 100 μM ATP, 60 min, 25° C.; read-out: Inhibitory activity(1 μM) MNK2
Measurement Label: inhibition at 1 µM

// query Quick one: inhibition at 1 µM of CN1CCN(C(=O)c2ccc(-c3nn4c(-c5ccc(F)cc5)cnc4s3)cc2)CC1 [Compound 18] ?
// result > 75%

---

# Target: MNK2 (Homo sapiens, UniProt Q9HBH9)
# Sequence (Q9HBH9 whole entry): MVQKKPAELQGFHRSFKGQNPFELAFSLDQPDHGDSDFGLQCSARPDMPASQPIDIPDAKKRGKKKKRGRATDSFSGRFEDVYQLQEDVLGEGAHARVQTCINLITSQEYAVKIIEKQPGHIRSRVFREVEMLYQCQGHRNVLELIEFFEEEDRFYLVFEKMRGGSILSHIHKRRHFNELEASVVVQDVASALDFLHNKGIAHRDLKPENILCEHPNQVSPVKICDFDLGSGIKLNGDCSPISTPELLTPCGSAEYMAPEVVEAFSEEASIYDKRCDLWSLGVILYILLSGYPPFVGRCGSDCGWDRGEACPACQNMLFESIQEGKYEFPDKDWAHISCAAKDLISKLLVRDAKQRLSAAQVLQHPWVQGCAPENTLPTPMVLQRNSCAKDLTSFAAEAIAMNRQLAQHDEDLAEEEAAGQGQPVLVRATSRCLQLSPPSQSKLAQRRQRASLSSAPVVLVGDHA
pIC50: −log10 of the molar value.
The entries below come with measured pIC50 values attached.

A selection of reference data follows.
> print(dat)
                                   compound  experimental.result
1  COc1ccc(-c2cnc3sc(-c4ccc(C(=O)N5CCC(N(C)C)CC5)cc4)nn23)cc1 [Compound 15]               > 7.30
2  O=C(c1ccc(-c2nn3c(-c4ccc(CO)cc4)cnc3s2)cc1)N1CCOCC1 [Compound 8]         6.10 to 6.70
3  CN1CCN(C(=O)c2ccc(-c3nn4c(-c5ccc(F)cc5)cnc4s3)cc2)CC1 [Compound 18]               > 7.30

Consider now this further compound.
// query pIC50 lookup needed for N#Cc1ccc(-c2cnc3sc(-c4ccc(C(=O)N5CCOCC5)cc4)nn23)cc1 [Compound 1] , thanks.
// result > 7.30

---

# Target: MNK1 (Homo sapiens, UniProt Q9BUB5)
# Sequence (Q9BUB5 whole entry): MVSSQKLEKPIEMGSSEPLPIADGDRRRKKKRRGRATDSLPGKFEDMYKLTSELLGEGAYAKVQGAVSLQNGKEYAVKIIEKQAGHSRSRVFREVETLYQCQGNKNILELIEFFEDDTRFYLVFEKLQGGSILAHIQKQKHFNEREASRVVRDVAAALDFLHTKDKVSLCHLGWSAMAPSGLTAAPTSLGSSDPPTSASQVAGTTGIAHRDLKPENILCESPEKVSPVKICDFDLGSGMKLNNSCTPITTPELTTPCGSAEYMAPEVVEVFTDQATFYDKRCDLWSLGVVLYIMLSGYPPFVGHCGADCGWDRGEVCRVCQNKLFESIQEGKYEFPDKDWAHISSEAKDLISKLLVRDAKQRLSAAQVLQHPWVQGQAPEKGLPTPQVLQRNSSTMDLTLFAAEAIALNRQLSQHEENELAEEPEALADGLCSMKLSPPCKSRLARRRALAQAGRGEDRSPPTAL
Catalogue of IC50 readings, one per entry.

> print(dat)
                                   molecule  measurement.label  experimental.result
1  CC1CCCCN1C(=O)c1ccc(-c2nn3c(-c4ccc(C#N)cc4)cnc3s2)cc1 (stereo not drawn)               IC50              < 50 nM
2  CN(C)C1CCN(C(=O)c2ccc(-c3nn4c(-c5ccc(F)cc5)cnc4s3)cc2)CC1               IC50              < 50 nM

Moving on to the next molecule.
// query Give the measured IC50 of `O=C(c1ccc(-c2nn3c(-c4ccc(CO)cc4)cnc3s2)cc1)N1CCOCC1` .
// result 200 to 800 nM

---

Reported values of inhibition at 1 µM for individual entries
# Target: MNK2 (Homo sapiens)
# Assay Notes: MNK2 kinase inhibition assay (LANCE Ultra kinase activity assay, PerkinElmer)
# Format: biochemical
# Condition Description: inhibition rate at 1000 nM compound; 100 μM ATP, 60 min, 25° C.; read-out: Inhibitory activity(1 μM) MNK2

// query Given CN1CCN(C(=O)c2ccc(-c3nn4c(-c5ccc(C(F)(F)F)nc5)cnc4s3)cc2)CC1 [Compound 29] , state its recorded inhibition at 1 µM.
// result 25 to 50%

// query What do you have for CN1CCN(C(=O)c2ccc(-c3nn4c(-c5ccc(C#N)cc5)cnc4s3)cc2)CC1 [Compound 17] ?
// result > 75%

---

Quick reference: inhibition at 1 µM of the listed items.
# Target: MNK2 (Homo sapiens, UniProt Q9HBH9)
# Assay Notes: MNK2 kinase inhibition assay (LANCE Ultra kinase activity assay, PerkinElmer)
# Format: biochemical
# Condition Description: inhibition rate at 1000 nM compound; 100 μM ATP, 60 min, 25° C.; read-out: Inhibitory activity(1 μM) MNK2

// known answers, use as guide
> print(dat)
                                   molecule  experimental.result
1  COc1ccc(-c2cnc3sc(-c4ccc(C(=O)N5CCC(N(C)C)CC5)cc4)nn23)cc1 [Compound 15]                > 75%
2  CC1CCCCN1C(=O)c1ccc(-c2nn3c(-c4ccc(C#N)cc4)cnc3s2)cc1 (stereo not drawn) [Compound 41]                > 75%
3  N#Cc1ccc(-c2cnc3sc(-c4ccc(C(=O)OCCN5CCCC5)cc4)nn23)cc1 [Compound 31]            25 to 50%
4  COC(=O)c1ccc(-c2cnc3sc(-c4ccc(C(=O)N5CCN(C)CC5)cc4)nn23)cc1 [Compound 19]                > 75%
5  CN1CCN(C(=O)c2ccc(-c3nn4c(-c5ccc(F)nc5)cnc4s3)cc2)CC1 [Compound 28]                > 75%
6  N#Cc1ccc(-c2csc3nc(-c4ccc(C(=O)N5CCOCC5)cc4)cn23)cc1 [Compound 43]            25 to 50%

// query # inhibition at 1 µM lookup, item N#Cc1ccc(-c2cnc3sc(-c4ccc(C(=O)NCCCO)cc4)nn23)cc1 [Compound 39]
// result > 75%

// query Please answer likewise for CN(C)C1CCN(C(=O)c2ccc(-c3nn4c(-c5ccc(O)cc5)cnc4s3)cc2)CC1 [Compound 14]
// result > 75%

// query Also, N#Cc1ccc(-c2cnc3sc(-c4ccc(C(=O)OCCCCCO)cc4)nn23)cc1 [Compound 34] please.
// result 25 to 50%

// query Here is the next molecule: CN1CCN(C(=O)c2ccc(-c3cn4c(-c5ccc(Cl)cc5)csc4n3)cc2)CC1 [Compound 51]
// result 25 to 50%

// query Ok, now CN1CCN(C(=O)c2ccc(-c3nn4c(-c5ccc(C(F)(F)F)c(F)c5)cnc4s3)cc2)CC1 [Compound 23]
// result > 75%

// query Same thing, different molecule: O=C(c1ccc(-c2nn3c(-c4ccc(C(F)(F)F)cc4)cnc3s2)cc1)N1CCOCC1 [Compound 5]
// result > 75%
